Assay name: solvent given as SMILES
Particulars: in Cc1ccccc1
Listed compounds paired with reported emission maximum
Measured metric: emission maximum (nm)

[[record]]
chem_smiles = "CC1(C)c2ccccc2N(c2ccccc2)c2ccc(-c3ccc(C(=O)c4ccc(-c5ccc6c(c5)C(C)(C)c5ccccc5N6c5ccccc5)cc4)cc3)cc21"
measured_metric = "emission maximum"
unit_string = "nm"
obs_value = 449.72

[[record]]
chem_smiles = "COC(=O)/C(C#N)=c1\\s/c(=c2/s/c(=C(/C#N)C(=O)OC)c3cc(-c4ccc(C(F)(F)F)cc4)sc23)c2sc(-c3ccc(C(F)(F)F)cc3)cc12"
measured_metric = "emission maximum"
unit_string = "nm"
obs_value = 625

[[record]]
chem_smiles = "CCc1ccc(-c2nc(-c3ccc(-n4c5ccccc5c5ccccc54)cc3)cc(-c3ccc(-n4c5ccccc5c5ccccc54)cc3)n2)cc1"
measured_metric = "emission maximum"
unit_string = "nm"
obs_value = 402

[[record]]
chem_smiles = "O=C(c1ccncc1)c1ccc(-n2c3ccccc3c3ccccc32)cc1"
measured_metric = "emission maximum"
unit_string = "nm"
obs_value = 440

